Target: Human C5 (Homo sapiens)
Construct: purchased Complement Technology
Sequence (P01031 19-1676): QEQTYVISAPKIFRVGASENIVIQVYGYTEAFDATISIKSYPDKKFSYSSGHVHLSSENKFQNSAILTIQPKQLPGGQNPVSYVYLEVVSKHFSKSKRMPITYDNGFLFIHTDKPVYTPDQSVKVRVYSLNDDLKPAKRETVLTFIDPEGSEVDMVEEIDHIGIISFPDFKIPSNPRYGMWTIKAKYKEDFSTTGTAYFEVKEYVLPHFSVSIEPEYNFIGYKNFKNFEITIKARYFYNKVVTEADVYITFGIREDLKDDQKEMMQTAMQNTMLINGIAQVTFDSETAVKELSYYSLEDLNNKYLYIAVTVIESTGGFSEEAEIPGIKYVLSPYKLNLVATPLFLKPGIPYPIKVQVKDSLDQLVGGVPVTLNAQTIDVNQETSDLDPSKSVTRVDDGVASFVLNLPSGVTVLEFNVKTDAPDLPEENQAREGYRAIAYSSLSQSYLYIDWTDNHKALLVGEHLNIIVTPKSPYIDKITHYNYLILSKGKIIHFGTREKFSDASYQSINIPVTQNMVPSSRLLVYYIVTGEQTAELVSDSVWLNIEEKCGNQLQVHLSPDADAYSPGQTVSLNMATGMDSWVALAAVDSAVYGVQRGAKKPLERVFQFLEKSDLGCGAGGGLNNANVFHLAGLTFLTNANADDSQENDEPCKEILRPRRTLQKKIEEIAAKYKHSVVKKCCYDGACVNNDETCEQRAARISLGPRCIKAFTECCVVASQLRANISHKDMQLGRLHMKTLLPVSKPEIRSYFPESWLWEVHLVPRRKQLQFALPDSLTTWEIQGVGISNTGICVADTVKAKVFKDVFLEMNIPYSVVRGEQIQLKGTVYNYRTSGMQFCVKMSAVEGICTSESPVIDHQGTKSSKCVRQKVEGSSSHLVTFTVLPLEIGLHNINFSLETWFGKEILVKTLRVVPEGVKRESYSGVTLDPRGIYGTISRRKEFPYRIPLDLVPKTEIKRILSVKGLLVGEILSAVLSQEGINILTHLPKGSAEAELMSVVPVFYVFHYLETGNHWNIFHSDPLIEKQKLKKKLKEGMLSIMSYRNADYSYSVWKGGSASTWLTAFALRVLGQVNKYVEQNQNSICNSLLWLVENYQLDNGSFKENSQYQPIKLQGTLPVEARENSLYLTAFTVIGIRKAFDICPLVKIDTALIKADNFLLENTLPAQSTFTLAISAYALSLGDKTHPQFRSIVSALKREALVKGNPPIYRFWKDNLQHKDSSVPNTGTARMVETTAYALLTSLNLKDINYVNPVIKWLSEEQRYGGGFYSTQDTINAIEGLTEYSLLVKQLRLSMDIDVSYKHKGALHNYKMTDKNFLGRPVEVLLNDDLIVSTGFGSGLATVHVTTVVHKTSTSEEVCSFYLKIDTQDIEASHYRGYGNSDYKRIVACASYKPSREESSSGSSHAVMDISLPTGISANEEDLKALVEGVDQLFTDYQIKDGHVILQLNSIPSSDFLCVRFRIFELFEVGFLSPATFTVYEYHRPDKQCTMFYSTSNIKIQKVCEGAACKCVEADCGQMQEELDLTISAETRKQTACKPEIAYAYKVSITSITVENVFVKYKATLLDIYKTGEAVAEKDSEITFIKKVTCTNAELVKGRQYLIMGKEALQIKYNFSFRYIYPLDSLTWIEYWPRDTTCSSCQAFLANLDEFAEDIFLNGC
Assay: Surface plasmon resonance (SPR), compounds on immobilized human C5 (Example 2, Table 5)
Assay type: binding
Details: lowest value where a range of compound concentrations were analyzed
metric: Kd (nM)

COc1ccc(NC(=O)NCc2ccc(O)c(O)c2)cc1OCCCC(C)C :: 196
COc1ccc(NC(=O)NCc2ccsc2)cc1OCCCC(C)C :: 210

P: COc1ccc(NC(=O)N(CCO)c2ccccc2)cc1OCCCC(C)C
Q: COc1ccc(NC(=O)NCc2ccc(O)cc2)cc1OCCCC(C)C
R: COc1ccc(NC(=O)NC(CO)c2ccccc2F)cc1CCCCC(C)C (centres unmarked)
Ascending by Kd, please: list the compounds accordingly. # format: label list in the order the request specifies
Q, R, P

* * *

Target: UniProt:P01031
Assay: Surface plasmon resonance (SPR), immobilized human C5, 37° C. (Example 23, Table 28)
Type: binding
Details: lowest value obtained where a range of concentrations was analyzed (Table 28)
pKd: −log10 of the molar value.
metric: pKd

a: CCCCCOc1cc(N2CC3(CC3)CN(Cc3ccccc3OC)C2=O)ccc1OC
b: CCCCCOc1cc(N2CC3(COC3)CN(Cc3ccccc3OC)C2=O)ccc1OC
Identify the item whose pKd is the smaller number: a or b Refer to your chosen item by its label in the answer.
b

* * *

Molecular target: Human C5 (Homo sapiens)
Construct: purchased Complement Technology
Experiment: Red blood cell (RBC) hemolysis assay, luminescent (Example 28, Table 32)
Assay type: cell-based
Details: sheep EA cells, 1.5% C5-depleted human serum, 0.5 nM human C5, 1 hour at 37° C., luminescence (Table 32)
Listed next: entries and their corresponding IC50.
Numeric answer only, unit nM assumed.

COc1ccc(N2CC[C@H](C)N(Cc3ccnc4c3c(Cl)cn4CC(=O)N(C)C)C2=O)cc1OCCCC1CC1 [SC0119] :: 1.4
CCN1CC[C@@H](NC(=O)Cc2ccc(CN3C(=O)N(c4ccc(OC)c(OCCCC5CC5)c4)CC[C@@H]3C)c(OC)c2)C1 [SC0126] :: 1.6
CCCCCOc1cc(N2CC[C@H](C)N(Cc3cccc4c3c(Cl)cn4CC(=O)N3CCCOCC3)C2=O)ccc1OC [SC0128] :: 1.7
CCCCCOc1cc(N2CC[C@H](C)N(Cc3ccc(CCO)cc3OC)C2=O)ccc1OC [SC0197] :: 9.1
COc1cc(Cc2cnccn2)ccc1CN1C(=O)N(c2ccc(OC)c(OCCCC3CC3)c2)CC[C@@H]1C [SC0138] :: 1.8
COc1cc(CC(=O)N[C@H]2CN(C(=O)OC(C)(C)C)C[C@H]2F)ccc1CN1C(=O)N(c2ccc(OC)c(OCCCC3CC3)c2)CC[C@@H]1C [SC0160] :: 2.7

Now consider the entry below.
// fetch IC50 given entry COc1cc(CC(=O)N(C)[C@@H]2CCNC2)ccc1CN1C(=O)N(c2ccc(OC)c(OCCCC3CC3)c2)CC[C@@H]1C [SC0121]
1.5

* * *

Biological target: UniProtKB P01031
Experiment: Red blood cell (RBC) hemolysis assay, optical, absorbance 412 nm (Example 10, Table 19)
Type: cell-based
Details: antibody-sensitized sheep erythrocytes, […] human C5 depleted sera, 0.5 nM purified human C5, absorbance 412 nm; read-out: RBC Hemolysis IC50
metric: pIC50
Hey, just a heads up that pIC50 is the negative log base 10 of the concentration in molar.

As a guide, the following entries are already answered.
COc1ccc(NC(=O)NC(C(=O)O)c2cccc(OC)c2O)cc1OCCCC(C)C (centres unmarked) [Compound C5INH-0501] :: 6.33
COc1ccc(NC(=O)NCc2ccnc3c2ccn3CC(=O)N2CCN(C)CC2)cc1OCCCC(C)C [Compound C5INH-0526] :: 7.50
COc1ccc(NC(=O)NCc2cccc(N3CCN(C)CC3)c2)cc1OCCCC(C)C [Compound C5INH-0369] :: 6.23
CC(C)CCCOc1cc(NC(=O)N[C@@H](CO)c2ccccc2)ccc1N [Compound C5INH-0431] :: 5.42
COC(=O)CCn1ccc2c(CNC(=O)Nc3ccc(OC)c(OCCCC(C)C)c3)ccnc21 [Compound C5INH-0398] :: 6.48
COc1ccc(NC(=O)NCc2cc(F)ccc2O)cc1OCCCC(C)C [Compound C5INH-0473] :: 7.67
COc1ccc(NC(=O)NCc2ccnc3c2ccn3CCNS(C)(=O)=O)cc1OCCCC(C)C [Compound C5INH-0409] :: 6.32

Now consider the entry below.
// fetch pIC50 given entry COc1ccc(NC(=O)NCc2cccc3cn[nH]c23)cc1OCCCC(C)C [Compound C5INH-0448]
5.37
